# Method description: M. tuberculosis growth inhibition, HTS (AID 449762);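 note: bacterial growth assessed after seven days of incubation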
# Study conditions: M. tuberculosis H37Rv growth inhibition, 7H9 media; at 25 µM; stronger effect = higher value
The campaign covered roughly 330,000 compounds. About 1,900 (0.58%) were called active. Another 4% or so got no clear call; they are omitted. Not all results are given here. Measured potencies and affinities stand elsewhere.
Experimental readout: inhibition

Observe how each entry below is paired with its result.
Cc1ccc(CNC(=O)CNC(=O)[C@@H]2Cc3ccccc3CN2C(=O)OC(C)(C)C)cc1; 4.75% (inactive)
CC(C)(C)c1ccc(OCC(=O)Nc2ccc(C(=O)Nc3ccccc3C(=O)O)cc2)cc1; -6.72% (inactive)
CC1CCC/C(=N\NC(=O)Nc2ccccc2)C1 (configuration not stated); -3.97% (inactive)
CC1(C)CC1C(=O)Nc1ccc([N+](=O)[O-])cc1Br (configuration not stated); -1.2% (inactive)
C[C@H](NC(=O)c1[nH]cnc1C(=O)Nc1cccc(Cl)c1)c1ccccc1; 48.7% (inactive)
CC(C)N(Cc1ccccc1)CC(O)COc1ccc(S(=O)(=O)N2CCOCC2)cc1Cl (configuration not stated); 1.09% (inactive)

Then there is this molecule:
Qu. Which measured inhibition value corresponds to `O=C(NNC(=O)C1CCN(C(=O)Nc2ccccc2)CC1)c1ccc([N+](=O)[O-])cc1` ?
Ans. -0.74% (inactive)

====

# Method description: M. tuberculosis growth inhibition, HTS (AID 449762);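 note: bacterial growth assessed after seven days of incubation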
# Study conditions: M. tuberculosis H37Rv growth inhibition, 7H9 media; at 25 µM; stronger effect = higher value
The campaign covered roughly 330,000 compounds. About 1,900 (0.58%) were called active. Inconclusive results (about 4%) are left out. Not all results are given here. Results with a measured potency or affinity are listed apart.
Field: inhibition. Provide a value for each of the molecules that follow.
Answers are plain numbers, in %.

Cc1cc(=O)oc2cc(OCC(=O)N3CCN(C(C)c4ccccc4)CC3)c(Cl)cc12 (stereo not given); -5.58
O=C(Cc1ccc(F)cc1)NCCS(=O)(=O)N1CCN(c2ccccc2)CC1; -9.43
COc1cc(CNc2ncn[nH]2)cc(Br)c1OC; -1.3
Cc1cc(C)nc(-n2nc(C)cc2NC(=O)CN2CCCC2)n1; 3.62
O=C(NN1CC(C(=O)OCc2ccc(Cl)cc2Cl)CC1=O)c1ccccc1 (stereo not given); -12
COc1ccc(-c2cc(NCc3ccccn3)n3ncnc3n2)cc1; 65.8

Respectfully, I request inhibition for each entry included below.
1. COc1ccccc1/C=C/C=N/n1c(C2CCCCC2)n[nH]c1=S
2. Cc1cc(C)c(NC(=O)c2cc3c(nc4sccn43)s2)c(C)c1
3. COc1ccc(-c2cc(NCCc3ccncc3)n3ncnc3n2)cc1
4. Cc1cc(C)nc(-n2nc(C)cc2NC(=O)CN2CCCC(C)C2)n1 (stereo not given)

Ans.
1: 0.81; 2: -18.3; 3: -2.4; 4: -1.78

Respectfully, I request inhibition for each entry included below.
1. Cc1cc(NC(=O)c2cc(-c3cccnc3)nc3c(C)c(C)ccc23)no1
2. CCOC(=O)c1c(C)[nH]c(C(=O)COC(=O)c2cc(C)oc2C)c1C

Ans.
2.95
-7.77

Respectfully, I request inhibition for each entry included below.
1. CCNS(=O)(=O)c1ccc(C(=O)OCC(=O)N2CCCc3ccccc32)cc1
2. CCC(=O)Nc1ccc(C(=O)Cn2ncc(Cl)c(Cl)c2=O)cc1
3. S=C(Nc1cccc(Cl)c1)N1CCOCC1
4. COc1ccc(/C=C2\SC(=S)N(Cc3cccnc3)C2=O)cc1C
5. CCC(C)N1CCN(C(=O)Cc2ccccc2)CC1 (stereo not given)
6. O=C(Nc1ccc(OC(F)(F)F)cc1)c1ccc2nc[nH]c2c1

Ans.
1. 5.95
2. -3.99
3. -10.2
4. 12.2
5. 4.3
6. 41.2

Respectfully, I request inhibition for each entry included below.
1. CC1CCN(C2=NC(=O)/C(=C/c3cn[nH]c3-c3ccccc3)S2)CC1
2. COc1ccc(N2C(=O)C(Cl)=C(Nc3ccccc3OC)C2=O)cc1
3. COc1cccc2cc(C(=O)Nc3ccc(S(=O)(=O)NCC4CCCO4)cc3)c(=O)oc12 (stereo not given)
4. O=C(NNC(=O)c1cc(S(=O)(=O)N2CCOCC2)c(Cl)cc1Cl)c1ccccc1F
5. COc1cc(NS(=O)(=O)c2ccc(OC)c(C)c2C)c(OC)cc1Cl

Ans.
1. 12.8
2. -3.72
3. 1.32
4. 0.47
5. -6.31

Respectfully, I request inhibition for each entry included below.
1. CCn1nc(C)c(CCC(=O)O)c1C
2. CC1(C)CC(=O)C2=C(C1)Nc1ccccc1[S@]2=O

Ans.
1: 4.75; 2: 1.12

====

# Method description: M. tuberculosis growth inhibition, HTS (AID 449762);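 note: bacterial growth assessed after seven days of incubation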
# Study conditions: M. tuberculosis H37Rv growth inhibition, 7H9 media; at 25 µM; stronger effect = higher value
About 1,900 (0.58%) of roughly 330,000 compounds were called active. Another 4% or so got no clear call; they are omitted. A selection follows. Potency and affinity values are given separately.
Experimental readout: inhibition (%)
Answers are plain numbers, in %.

Observe how each entry below is paired with its result.
O=C(Nc1ccc(Oc2cccc(C(F)(F)F)c2)nc1)c1ccccc1; 14
CC(=O)n1nc(-c2ccccc2)nc1NCc1ccc(N(C)C)cc1; 0.39
Cc1cccc(-n2ccc(=O)c(C(=O)Nc3ccc(S(=O)(=O)Nc4nccc(C)n4)cc3)n2)c1; 6.8
Cn1c(N)c(C(=O)COC(=O)c2ccc(Br)o2)c(=O)n(C)c1=O; 1.58
Cc1ccc(OCCn2ncc3ccccc3c2=O)c(C)c1; 9.3

Respectfully, I request inhibition for each entry included below.
1. Cc1ccc2[nH]cc(/C=C/c3cc[n+](C)cc3)c2c1
2. O=C(Nc1ccc2c3c(cccc13)CC2)c1cccc([N+](=O)[O-])c1

Ans.
[-0.27, -7.19]

====

# Method description: M. tuberculosis growth inhibition, HTS (AID 449762);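 note: bacterial growth assessed after seven days of incubation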
# Study conditions: M. tuberculosis H37Rv growth inhibition, 7H9 media; at 25 µM; stronger effect = higher value
Screen size: about 330,000 compounds; about 1,900 (0.58%) were called active. Roughly 4% stayed inconclusive and do not appear here. Not all results are given here. Measured potencies and affinities stand elsewhere.
Experimental readout: inhibition (%)
Numbers only, in %.

Observe how each entry below is paired with its result.
CC1CCCC(C)N1/N=C/c1cccc(Br)c1 (stereo not given); 2.02
Cc1ccc(-c2cc(C(=O)N3CC(C)OC(C)C3)c3ccccc3n2)o1 (stereo not given); -3.5
CCCc1cc(=O)[nH]c(SCC(=O)Nc2c(C)cccc2C)n1; 0.09
CSc1nsc(/C=C/Nc2ccc(C)cc2)c1C#N; 18.6
COc1ccc(OC)c(NC(=O)c2ccc(OCC(=O)N3CCOCC3)c(OC)c2)c1; 1.16

Respectfully, I request inhibition for each entry included below.
1. CC(C)(C)n1nnnc1C(c1cccc(C(F)(F)F)c1)N1CCC(O)CC1 (stereo not given)
2. CC(C)(C)NC(=O)C(c1c[nH]c2ccccc12)N(C(=O)Cn1nnc(-c2ccc(Cl)cc2)n1)c1ccccc1F (stereo not given)
3. Cc1c(C(=O)NCc2ccc(S(N)(=O)=O)cc2)oc2ccc(Cl)cc12
4. Cc1nnc(SCC(=O)N2CCCCC2)s1
5. O=C(COC(=O)c1cc(=O)[nH]c2ccccc12)NC(=O)c1ccccc1

Ans.
2.3
2.56
-4.55
-0.73
-1.53

====

# Method description: M. tuberculosis growth inhibition, HTS (AID 449762);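 note: bacterial growth assessed after seven days of incubation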
# Study conditions: M. tuberculosis H37Rv growth inhibition, 7H9 media; at 25 µM; stronger effect = higher value
About 1,900 (0.58%) of roughly 330,000 compounds were called active. Not shown: some 4% with an inconclusive outcome. These entries were drawn from the full list. Potency and affinity values are given separately.
Field: inhibition. Provide a value for each of the compounds that follow.
Answers are plain numbers, in %.

Observe how each entry below is paired with its result.
Cc1ccc(/C=C2\SC(=S)N(CCC(=O)NNC(=O)c3ccc(O)cc3)C2=O)cc1; 3.42
CCOC(=O)CSc1nnc(CSc2nc3sc4c(c3c(=O)[nH]2)CCC4)n1C; -1.21
O=C(COC(=O)c1ccc([N+](=O)[O-])s1)NCc1ccccc1; 40.3
Cc1ccc(N(CC(=O)Nc2cc(Cl)ccc2Oc2ccccc2)S(C)(=O)=O)cc1C; 13.8

Then there is this compound:
Qu. Which measured inhibition value corresponds to `O=C(CSc1nnc2c(n1)[nH]c1ccccc12)Nc1ccc2c(c1)OCO2` ?
Ans. 0.35

====

# Method description: M. tuberculosis growth inhibition, HTS (AID 449762);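 note: bacterial growth assessed after seven days of incubation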
# Study conditions: M. tuberculosis H37Rv growth inhibition, 7H9 media; at 25 µM; stronger effect = higher value
In all, about 330,000 compounds went through this assay and about 1,900 (0.58%) were called active. Roughly 4% stayed inconclusive and do not appear here. Not all results are given here. Results with a measured potency or affinity are listed apart.
Experimental readout: inhibition (%)
Numbers only, in %.

Observe how each entry below is paired with its result.
O=C(CNC(=S)N(Cc1ccccc1)Cc1cccnc1)NC1CCCC1; -0.51
COc1cccc(NC(=O)CSc2ccc3nnc(-c4cccnc4)n3n2)c1; 6.73
COC(=O)c1cc(NC(=O)Cc2ccc(OC)cc2)cc(C(=O)OC)c1; -3.89

Then there is this compound:
Qu. Which measured inhibition value corresponds to `CCOC(=O)c1c(/N=C/N(C)C)sc(/C=N/Nc2ccccc2)c1-c1ccc(Cl)cc1` ?
Ans. 69
